Biological target: Aminopeptidase N (Sus scrofa, UniProt P15145)
Sequence (P15145 whole entry): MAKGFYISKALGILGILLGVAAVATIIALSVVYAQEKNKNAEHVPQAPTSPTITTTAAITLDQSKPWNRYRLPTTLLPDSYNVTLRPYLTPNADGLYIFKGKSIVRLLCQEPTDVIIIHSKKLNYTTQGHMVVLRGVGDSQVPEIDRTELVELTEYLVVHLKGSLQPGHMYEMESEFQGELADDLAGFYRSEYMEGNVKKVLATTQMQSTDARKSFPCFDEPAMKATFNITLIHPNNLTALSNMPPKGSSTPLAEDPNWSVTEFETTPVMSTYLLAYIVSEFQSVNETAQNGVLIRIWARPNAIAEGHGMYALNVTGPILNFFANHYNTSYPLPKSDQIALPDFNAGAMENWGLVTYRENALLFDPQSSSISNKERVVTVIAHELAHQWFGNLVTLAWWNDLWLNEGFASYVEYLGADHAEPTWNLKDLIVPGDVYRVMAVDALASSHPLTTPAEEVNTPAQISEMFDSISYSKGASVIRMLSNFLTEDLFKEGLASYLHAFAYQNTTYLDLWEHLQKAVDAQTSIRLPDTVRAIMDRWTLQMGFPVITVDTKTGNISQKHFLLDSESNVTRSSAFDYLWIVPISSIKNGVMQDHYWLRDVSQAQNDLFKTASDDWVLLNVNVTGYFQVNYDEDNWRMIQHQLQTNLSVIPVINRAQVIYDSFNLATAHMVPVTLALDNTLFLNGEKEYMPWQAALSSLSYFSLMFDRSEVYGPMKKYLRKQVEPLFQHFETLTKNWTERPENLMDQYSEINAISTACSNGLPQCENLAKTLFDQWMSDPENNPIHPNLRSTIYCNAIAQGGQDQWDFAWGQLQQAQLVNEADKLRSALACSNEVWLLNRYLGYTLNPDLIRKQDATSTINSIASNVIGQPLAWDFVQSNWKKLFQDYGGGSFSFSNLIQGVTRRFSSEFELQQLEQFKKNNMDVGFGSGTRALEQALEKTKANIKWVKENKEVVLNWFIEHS
readout-label: IC50 (µM)
Give bare numbers, in µM.

Example results:
- compound: "NC(Cc1ccccc1)C(=O)N[C@H]1CCC(=O)N(CC(=O)NCC(=O)NO)C1=O (single isomer, unassigned)"
  assay-target: "Aminopeptidase N (Sus scrofa, UniProt P15145)"
  readout-label: "IC50"
  reported-value: 304
- compound: "COc1ccc(NC(=O)CN2C(=O)CC[C@H](NC(=O)[C@@H](N)Cc3ccccc3)C2=O)cc1"
  assay-target: "Aminopeptidase N (Sus scrofa, UniProt P15145)"
  readout-label: "IC50"
  reported-value: 178

Okay, next one:
Would you kindly share the measured IC50 for NC(Cc1ccccc1)C(=O)N[C@H]1CCC(=O)N(CC(=O)NCCC(=O)OCc2ccccc2)C1=O (single isomer, unassigned) ?
49.7

The measurements presented in this section are drawn from ChEMBL document CHEMBL1212859.
